Entry source: paper doi:10.1101/735704v2

# system under test: TWIK-1* (K2P1.1/KCNK1, I293A/I294A trafficking mutant) (Homo sapiens, UniProt O00180, I293A/I294A)
# Construct: full-length channel with mutated di-isoleucine endocytic retention motif (I293A/I294A), subcloned into pFAW, mRNA-injected Xenopus oocytes, giant excised inside-out patches; homodimer
# Sequence (O00180 1-336 I293A/I294A): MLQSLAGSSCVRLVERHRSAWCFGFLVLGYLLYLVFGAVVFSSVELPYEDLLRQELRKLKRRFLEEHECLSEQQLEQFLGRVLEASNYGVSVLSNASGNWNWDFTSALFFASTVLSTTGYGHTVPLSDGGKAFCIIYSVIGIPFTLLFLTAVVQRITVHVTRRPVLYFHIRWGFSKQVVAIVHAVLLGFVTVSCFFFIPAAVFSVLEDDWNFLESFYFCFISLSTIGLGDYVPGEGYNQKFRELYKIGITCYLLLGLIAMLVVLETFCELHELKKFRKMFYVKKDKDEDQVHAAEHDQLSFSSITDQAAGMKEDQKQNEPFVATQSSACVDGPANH
# assay comment: giant excised inside-out patch electrophysiology, Xenopus oocytes, Hill fit
reported endpoint: IC50 (µM)
Write the value in µM as a bare number.

Problem: Tell me the measured IC50 of "CCCCC[N+](CCCCC)(CCCCC)CCCCC" , please.
Result: 3.3
